The reported numbers originate from patent US20090270459A1.

- Tested on: adult cat fleas
- experiment: Effect on cat flea (1): glass tube residue contact test, knock-down and mortality
- Assay type: in vivo, cat flea (Ctenocephalides felis)
- protocol conditions: 0.01 mg/tube
experimental readout: After 1 day (mortality) (%)
Supply the numeric figure in %, leaving out any unit text.

Worked examples follow.
- molecule: "O=S(=O)(c1cn(-c2c(Cl)cc(C(F)(F)F)cc2Cl)c2ccccc12)C(F)(Cl)Cl [Compound 32]"
  After 1 day (mortality) [%]: 0
- molecule: "N#Cc1nn(-c2c(Cl)cc(C(F)(F)F)cc2Cl)c(N)c1[S+]([O-])C(F)(F)F (stereo not drawn) [Fipronil, reference compound]"
  After 1 day (mortality) [%]: 20

Result for Cc1c(SC(F)(Cl)Cl)c2ccccc2n1-c1ncc(C(F)(F)F)cc1Cl [Compound 14] , tested on adult cat fleas, After 1 day (mortality): 50

Result for FC(Cl)(Cl)Sc1cn(-c2ncc(C(F)(F)F)cc2Cl)c2ccc(Cl)cc12 [Compound 3] , tested on adult cat fleas, After 1 day (mortality): 10

Result for Fc1ccc2c(c1)c(SC(F)(Cl)Cl)cn2-c1ncc(C(F)(F)F)cc1Cl [Compound 2] , tested on adult cat fleas, After 1 day (mortality): 10

Result for FC(Cl)(Cl)Sc1cn(-c2c(Cl)cc(C(F)(F)F)cc2Cl)c2ccc(Cl)cc12 [Compound 19] , tested on adult cat fleas, After 1 day (mortality): 30

Result for FC(Cl)(Cl)Sc1cn(-c2c(Cl)cc(C(F)(F)F)cc2Cl)c2ccccc12 [Compound 17] , tested on adult cat fleas, After 1 day (mortality): 70

Result for FC(Cl)(Cl)Sc1cn(-c2ncc(C(F)(F)F)cc2Cl)c2ccccc12 [Compound 1] , tested on adult cat fleas, After 1 day (mortality): 70

Result for FC(F)(F)Sc1cn(-c2c(Cl)cc(C(F)(F)F)cc2Cl)c2ccccc12 [Compound 25] , tested on adult cat fleas, After 1 day (mortality): 70

====

- System: adult cat fleas
- experiment: Effect on cat flea (1): glass tube residue contact test, knock-down and mortality
- Assay type: in vivo, cat flea (Ctenocephalides felis)
- Set-up: unit not given here
- protocol conditions: 1 mg/tube; 10 adult cat fleas; 26° C., humidity 80%
experimental readout: After 3 hours (KD) knocking-down rate
Keep it simple and answer with nothing but the number.

compound Fc1ccc2c(c1)c(SC(F)(Cl)Cl)cn2-c1ncc(C(F)(F)F)cc1Cl , After 3 hours (KD) knocking-down rate observed: 0

compound Cc1c(SC(F)(Cl)Cl)c2ccccc2n1-c1ncc(C(F)(F)F)cc1Cl , After 3 hours (KD) knocking-down rate observed: 0

compound O=S(=O)(c1cn(-c2c(Cl)cc(C(F)(F)F)cc2Cl)c2ccccc12)C(F)(Cl)Cl , After 3 hours (KD) knocking-down rate observed: 0

compound FC(Cl)(Cl)Sc1cn(-c2ncc(C(F)(F)F)cc2Cl)c2ccccc12 , After 3 hours (KD) knocking-down rate observed: 80

compound N#Cc1nn(-c2c(Cl)cc(C(F)(F)F)cc2Cl)c(N)c1[S+]([O-])C(F)(F)F (stereo not drawn) [Fipronil, reference compound] , After 3 hours (KD) knocking-down rate observed: 0

compound FC(F)(F)Sc1cn(-c2c(Cl)cc(C(F)(F)F)cc2Cl)c2ccccc12 , After 3 hours (KD) knocking-down rate observed: 100

compound FC(Cl)(Cl)Sc1cn(-c2ncc(C(F)(F)F)cc2Cl)c2ccc(Cl)cc12 , After 3 hours (KD) knocking-down rate observed: 0

compound FC(Cl)(Cl)Sc1cn(-c2c(Cl)cc(C(F)(F)F)cc2Cl)c2ccc(Cl)cc12 , After 3 hours (KD) knocking-down rate observed: 0

compound FC(Cl)(Cl)Sc1cn(-c2c(Cl)cc(C(F)(F)F)cc2Cl)c2ccccc12 , After 3 hours (KD) knocking-down rate observed: 50
